Values compiled from PubChem BioAssay (NCI).

# System: SK-MEL-2 melanoma
# EXPERIMENT_DESCRIPTION: NCI-60 one-dose screen, 48 h (100 = growth as untreated, 0 = no growth, -100 = all killed)
# PROTOCOL_CONDITIONS: 10 µM unless noted
About 83,000 compounds went through this panel and 20% of them were active in at least one assay; those are over-represented in the sample as a whole.
Would you kindly list growth for each of these molecules?
One number for each entry, in %.

- MOLECULE: "CC1CCC(C(C)(C)[N+](C)(C)C)CC1 (stereo not drawn)"
  MEASURED_NUMBER: 114
- MOLECULE: "C/C(=N\\N=C(/C)c1cccc([N+](=O)[O-])c1)c1cccc([N+](=O)[O-])c1"
  MEASURED_NUMBER: 90.8
- MOLECULE: "COc1cc(CC#N)c([N+](=O)[O-])cc1OC"
  MEASURED_NUMBER: 109
- MOLECULE: "COc1cc(OC)c2cc(C(=O)c3ccc(C#N)cc3)c(=O)oc2c1"
  MEASURED_NUMBER: 103
- MOLECULE: "CCCCN(C(=O)CC)c1ccccc1"
  MEASURED_NUMBER: 108
- MOLECULE: "O=C1NC(=O)C(c2ccccc2)O1 (stereo not drawn)"
  MEASURED_NUMBER: 90.1
- MOLECULE: "COc1cc(-c2ccc(NC(=O)CC(C)=O)c(OC)c2)ccc1NC(=O)CC(C)=O"
  MEASURED_NUMBER: 108
- MOLECULE: "O=c1cc(Cl)nc2ccccn12"
  MEASURED_NUMBER: 110

Provide the reported growth of each entry below, same order.
1. Cc1cccc(-[n+]2noc(N)n2)c1
2. CC(C)(CC(=O)O)CC(=O)O

Reply:
[145, 107]

Provide the reported growth of each entry below, same order.
1. COc1ccc(Br)c2c1C(=O)CC2
2. Nc1cc(N)ncn1
3. Cc1ccc2[nH]c3ccccc3c2c1

Reply:
1: 96; 2: 113; 3: 109
